Tested on: ACHN renal
Assay: NCI tumour cell line growth inhibition, 48 h
PARAMETER: GI50

[
  {
    "MOLECULE": "C/C=C(\\C)C(=O)O[C@@H]1C=CC(=O)O[C@H]1CNC(=O)[C@H](C)O",
    "PARAMETER": "GI50",
    "MEAS VALUE": "15.9 µM"
  },
  {
    "MOLECULE": "Cn1cc(-c2nc(-c3cn(C)c4ncccc34)cs2)c2ccccc21",
    "PARAMETER": "GI50",
    "MEAS VALUE": "3.67 µM"
  },
  {
    "MOLECULE": "O=c1[nH]c2ccccc2n1C1CCN(CCOc2ccccc2)CC1",
    "PARAMETER": "GI50",
    "MEAS VALUE": "40.4 µM"
  },
  {
    "MOLECULE": "CCOC(=O)c1ccc(NC(=O)c2cccc(NC3=C(Cl)C(=O)N(Cc4ccccc4)C3=O)c2)cc1",
    "PARAMETER": "GI50",
    "MEAS VALUE": "> 100 µM"
  },
  {
    "MOLECULE": "COc1cc([C@@H]2c3cc4c(cc3[C@@H](NC(=O)NO)[C@H]3COC(=O)[C@H]23)OCO4)cc(OC)c1O",
    "PARAMETER": "GI50",
    "MEAS VALUE": "6.04 µM"
  },
  {
    "MOLECULE": "Cc1ccc(C2C3Cc4ccccc4C3=NN2c2ccc(S(=O)(=O)NC(=O)Nc3ccccc3)cc2)cc1 (centres undefined)",
    "PARAMETER": "GI50",
    "MEAS VALUE": "14.1 µM"
  },
  {
    "MOLECULE": "Nc1no[n+]([O-])c1-c1nnc2c(n1)-c1ccccc1C2=O",
    "PARAMETER": "GI50",
    "MEAS VALUE": "1.56 µM"
  },
  {
    "MOLECULE": "CN1/C(=C/C=C/c2n(Cc3ccc4ccccc4c3)c(Cl)c(Cl)[n+]2Cc2ccc3ccccc3c2)Oc2ccccc21",
    "PARAMETER": "GI50",
    "MEAS VALUE": "0.494 µM"
  },
  {
    "MOLECULE": "CCS(=O)(=O)N1CCN(c2ccc(Nc3ncc(C(N)=O)c(NC4CC4)n3)cc2)CC1",
    "PARAMETER": "GI50",
    "MEAS VALUE": "12.5 µM"
  }
]
